assay: Log P of radiolabeled peptide; assay type: physicochemical; details: peptide radiolabeled with [18F]fluorobenzoic acid

STRUCTURE_SMILES_STRING: CC(C)C[C@H](NC(=O)[C@H](Cc1ccc(O)cc1)NC(=O)[C@@H](NC(=O)[C@H](CC(C)C)NC(=O)[C@H](CC(=O)O)NC(=O)CNC(=O)[C@@H](N)C(C)C)[C@@H](C)O)C(=O)N[C@@H](CCCCN)C(=O)N[C@@H](CCCCNC(=O)c1ccc(F)cc1)C(N)=O
logP: -1.09
